So I've got a bunch of compounds here, and I need their k obs values.
Test system: Nucleic Acid
PROTOCOL_DESCRIPTION: Rate constants (1/s x 10e4) for loss of compound when incubated with calf thymus DNA in SHE buffer (pH 7.0) at 37 degree Centigrade, as determined by HPLC
Format: nucleic-acid assay
TEST_CONDITIONS: Bos taurus
Lab book: enter the figure in s⁻¹, no units written.

Exercise: Consider the compound shown here: "O=C(Nc1ccc(CCCc2c(CO)c(CO)c3n2CCC3)cc1)c1ccc(Nc2ccnc3ccccc23)cc1" What is its recorded k obs?
Key: 0.000186

Exercise: Now give it for "CNC(=O)OCc1nc(SC)n(C)c1COC(=O)NC" too.
Key: 0.000134

Exercise: Now give it for "OCc1c(CO)c2n(c1CCCc1ccc(Nc3c4ccccc4nc4ccccc34)cc1)CCC2" too.
Key: 0.000187

Exercise: Now give it for "CNC(=O)OCc1nc(SC)n(CCCc2ccc(NC(=O)c3ccc(Nc4ccnc5ccccc45)cc3)cc2)c1COC(=O)NC" too.
Key: 8.8e-05

Exercise: Now give it for "O=C(Nc1ccc(CCc2c(CO)c(CO)c3n2CCC3)cc1)c1ccc(Nc2ccnc3ccccc23)cc1" too.
Key: 0.000158

Exercise: Now give it for "CNC(=O)OCc1nc(SC)n(CCCc2ccc(Nc3c4ccccc4nc4ccccc34)cc2)c1COC(=O)NC" too.
Key: 0.000161
